Where these numbers come from: ChEMBL document CHEMBL1139444

tested on: Staphylococcus aureus; assay: Minimum inhibitory concentration against Staphylococcus aureus ATCC 14154; type: functional
recorded metric: MIC (µg/mL)
Numbers only, in µg/mL.

C/C(S)=N/C[C@H]1CN(c2ccc(N3CCN(C(=O)/C=C/c4ccc5c(c4)OCO5)CC3)c(F)c2)C(=O)O1    1

Would you be so kind as to report MIC for each listed record?
1. CC(=O)NC[C@H]1CN(c2ccc(N3CCN(C(=O)/C=C/c4ccc(O)cc4)CC3)c(F)c2)C(=O)O1
2. CC(=O)NC[C@H]1CN(c2ccc(N3CCN(C(=O)CO)CC3)c(F)c2)C(=O)O1
3. CC(=O)NC[C@H]1CN(c2ccc(N3CCN(C(=O)/C=C/c4ccc5c(c4)OCO5)CC3)c(F)c2)C(=O)O1
4. CC(=O)NC[C@H]1CN(c2ccc(N3CCN(C(=O)/C=C/c4cccc(O)c4)CC3)c(F)c2)C(=O)O1
5. C/C(S)=N/C[C@H]1CN(c2ccc(N3CCN(C(=O)/C=C/c4ccc(F)cc4)CC3)c(F)c2)C(=O)O1
6. NC(=S)NC[C@H]1CN(c2ccc(N3CCN(C(=O)/C=C/c4ccccc4)CC3)c(F)c2)C(=O)O1
7. CC(=O)NC[C@H]1CN(c2ccc(N3CCN(C(=O)/C=C/c4ccccc4)CC3)c(F)c2)C(=O)O1

2
4
2
4
1
2
4
